- System: M. tuberculosis H37Rv growth inhibition with meropenem
- EXPERIMENT: dose response, H37Rv, with and without meropenem (AID 434987);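 also: growth over 7 days at 37 °C before Alamar Blue read on day 9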
- PARTICULARS: M. tuberculosis H37Rv growth inhibition; measured here: IC50 without meropenem
Recorded measurements of pIC50, one per entry
// pIC50 is dimensionless: -log10 of concentration (M)

Examples from the recorded data:
COMPOUND | pIC50
CC[C@@](C)(NS(=O)(=O)OCC(Cl)(Cl)Cl)c1ccccc1 | 4.02
CCCOc1ccc(C(=O)CCN2CCCCC2)cc1 | 4.27
COc1ccc(OC)c(NC(=O)CSC2=C(C#N)C(c3ccco3)C3=C(CCCC3=O)N2)c1 (stereo not drawn) | 4.03
COc1cc(/C=C/C(=O)OCC(=O)Nc2cc(C)c(C)cc2[N+](=O)[O-])ccc1O | 4.03
CCn1c(-c2ccc(-c3ccccc3)cc2)c[nH]c1=S | 4.32

Tell me its pIC50 on M. tuberculosis H37Rv growth inhibition with meropenem: CCCn1nc2cc(C(=O)NCCCCc3ccccc3)ccc2c1OCC
4.03

Report pIC50 from M. tuberculosis H37Rv growth inhibition with meropenem testing of CCOCC(=O)N1CCN(c2ccc(F)cc2)CC1
4.07

----------
- System: M. tuberculosis H37Rv growth inhibition with meropenem
- EXPERIMENT: dose response, H37Rv, with and without meropenem (AID 434987);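 also: growth over 7 days at 37 °C before Alamar Blue read on day 9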
- PARTICULARS: M. tuberculosis H37Rv growth inhibition; measured here: IC50 without meropenem
EXPERIMENTAL_ENDPOINT: pIC50
# pIC50: negative log10 of molar concentration; output just the value

These recorded examples may help you get a feel for the data.
COMPOUND | EXPERIMENTAL_ENDPOINT | RECORDED_RESULT
CN1CCN(c2ccccc2NC(=O)c2ccc(-c3ccc(Cl)c(Cl)c3)o2)CC1 | pIC50 | 4.50
CC(C)(C)c1nn(-c2ccccc2)c2[nH]c(=O)c(CNc3ccc4c(c3)OCCO4)cc12 | pIC50 | 4.05
CC(OC(=O)c1ccc([N+](=O)[O-])o1)C(=O)NC1CCCCC1C (stereo unspecified) | pIC50 | 4.58
COc1ccc2oc(C(=O)Nc3nc4ccccc4[nH]3)c(C)c2c1 | pIC50 | 4.43
CN(C(=O)Nc1ccc(Cl)cc1)n1cnc2ccccc2c1=O | pIC50 | 4.02

Here's the next entry for you.
Check the records and state pIC50 for Cc1ccc(-n2nnnc2Sc2nc([N+](=O)[O-])nn2C)cc1
4.29

----------
Reported pIC50 by item:
- Tested on: M. tuberculosis H37Rv growth inhibition with meropenem
- EXPERIMENT: dose response, H37Rv, with and without meropenem (AID 434987);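 also: growth over 7 days at 37 °C before Alamar Blue read on day 9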
- PARTICULARS: M. tuberculosis H37Rv growth inhibition; measured here: IC50 without meropenem
In textbook form, pIC50 equals minus log to base ten of the concentration in mol/L.

Please review the entries below; each comes with its answer.
MOLECULE | RECORDED_RESULT
Cc1nnnn1/C(=C\c1ccccc1)C(=O)OCC(=O)NC1CCCCC1 | 4.74
CCOC(=O)COc1ccc2nsnc2c1 | 4.57
Cc1ncc(CCl)c2c1OC(C)(C)OC2 | 4.05
Cc1onc(-c2ccccc2)c1C(=O)Nc1ccc(-c2nnc3n2CCCCC3)cc1 | 4.53
Cc1onc(NC(=O)c2ccc([N+](=O)[O-])o2)c1Br | 4.58
Cc1ccc(CN2C(=O)N/C(=C\c3ccc(-c4ccc(C(=O)O)cc4C)o3)C2=O)cc1 | 4.62
CCOC(=O)CSc1nnc(CNC(=O)c2cccs2)n1CCc1ccccc1 | 4.45
Cc1cc(C)nc(SCC(=O)Nc2ccccc2[N+](=O)[O-])n1 | 4.56

Tell me its pIC50 given CCOCC(=O)Nc1ccc(F)c(F)c1 as the entry.
4.02

Identify measured pIC50 corresponding to Cc1nnc(SCc2cccc(Cl)c2)n(N)c1=O
4.92

Look up and report measured pIC50 for this entry: COc1ccc(/C=C/C(=O)N(C(C)C)C(C)C)cc1Br
4.03
